Readings of IC50 for the listed compounds
Molecular target: human α1G T-type channels (Homo sapiens)
Construct: expressed in transfected cells; host or cells: HEK 293
Sequence (O43497 whole entry): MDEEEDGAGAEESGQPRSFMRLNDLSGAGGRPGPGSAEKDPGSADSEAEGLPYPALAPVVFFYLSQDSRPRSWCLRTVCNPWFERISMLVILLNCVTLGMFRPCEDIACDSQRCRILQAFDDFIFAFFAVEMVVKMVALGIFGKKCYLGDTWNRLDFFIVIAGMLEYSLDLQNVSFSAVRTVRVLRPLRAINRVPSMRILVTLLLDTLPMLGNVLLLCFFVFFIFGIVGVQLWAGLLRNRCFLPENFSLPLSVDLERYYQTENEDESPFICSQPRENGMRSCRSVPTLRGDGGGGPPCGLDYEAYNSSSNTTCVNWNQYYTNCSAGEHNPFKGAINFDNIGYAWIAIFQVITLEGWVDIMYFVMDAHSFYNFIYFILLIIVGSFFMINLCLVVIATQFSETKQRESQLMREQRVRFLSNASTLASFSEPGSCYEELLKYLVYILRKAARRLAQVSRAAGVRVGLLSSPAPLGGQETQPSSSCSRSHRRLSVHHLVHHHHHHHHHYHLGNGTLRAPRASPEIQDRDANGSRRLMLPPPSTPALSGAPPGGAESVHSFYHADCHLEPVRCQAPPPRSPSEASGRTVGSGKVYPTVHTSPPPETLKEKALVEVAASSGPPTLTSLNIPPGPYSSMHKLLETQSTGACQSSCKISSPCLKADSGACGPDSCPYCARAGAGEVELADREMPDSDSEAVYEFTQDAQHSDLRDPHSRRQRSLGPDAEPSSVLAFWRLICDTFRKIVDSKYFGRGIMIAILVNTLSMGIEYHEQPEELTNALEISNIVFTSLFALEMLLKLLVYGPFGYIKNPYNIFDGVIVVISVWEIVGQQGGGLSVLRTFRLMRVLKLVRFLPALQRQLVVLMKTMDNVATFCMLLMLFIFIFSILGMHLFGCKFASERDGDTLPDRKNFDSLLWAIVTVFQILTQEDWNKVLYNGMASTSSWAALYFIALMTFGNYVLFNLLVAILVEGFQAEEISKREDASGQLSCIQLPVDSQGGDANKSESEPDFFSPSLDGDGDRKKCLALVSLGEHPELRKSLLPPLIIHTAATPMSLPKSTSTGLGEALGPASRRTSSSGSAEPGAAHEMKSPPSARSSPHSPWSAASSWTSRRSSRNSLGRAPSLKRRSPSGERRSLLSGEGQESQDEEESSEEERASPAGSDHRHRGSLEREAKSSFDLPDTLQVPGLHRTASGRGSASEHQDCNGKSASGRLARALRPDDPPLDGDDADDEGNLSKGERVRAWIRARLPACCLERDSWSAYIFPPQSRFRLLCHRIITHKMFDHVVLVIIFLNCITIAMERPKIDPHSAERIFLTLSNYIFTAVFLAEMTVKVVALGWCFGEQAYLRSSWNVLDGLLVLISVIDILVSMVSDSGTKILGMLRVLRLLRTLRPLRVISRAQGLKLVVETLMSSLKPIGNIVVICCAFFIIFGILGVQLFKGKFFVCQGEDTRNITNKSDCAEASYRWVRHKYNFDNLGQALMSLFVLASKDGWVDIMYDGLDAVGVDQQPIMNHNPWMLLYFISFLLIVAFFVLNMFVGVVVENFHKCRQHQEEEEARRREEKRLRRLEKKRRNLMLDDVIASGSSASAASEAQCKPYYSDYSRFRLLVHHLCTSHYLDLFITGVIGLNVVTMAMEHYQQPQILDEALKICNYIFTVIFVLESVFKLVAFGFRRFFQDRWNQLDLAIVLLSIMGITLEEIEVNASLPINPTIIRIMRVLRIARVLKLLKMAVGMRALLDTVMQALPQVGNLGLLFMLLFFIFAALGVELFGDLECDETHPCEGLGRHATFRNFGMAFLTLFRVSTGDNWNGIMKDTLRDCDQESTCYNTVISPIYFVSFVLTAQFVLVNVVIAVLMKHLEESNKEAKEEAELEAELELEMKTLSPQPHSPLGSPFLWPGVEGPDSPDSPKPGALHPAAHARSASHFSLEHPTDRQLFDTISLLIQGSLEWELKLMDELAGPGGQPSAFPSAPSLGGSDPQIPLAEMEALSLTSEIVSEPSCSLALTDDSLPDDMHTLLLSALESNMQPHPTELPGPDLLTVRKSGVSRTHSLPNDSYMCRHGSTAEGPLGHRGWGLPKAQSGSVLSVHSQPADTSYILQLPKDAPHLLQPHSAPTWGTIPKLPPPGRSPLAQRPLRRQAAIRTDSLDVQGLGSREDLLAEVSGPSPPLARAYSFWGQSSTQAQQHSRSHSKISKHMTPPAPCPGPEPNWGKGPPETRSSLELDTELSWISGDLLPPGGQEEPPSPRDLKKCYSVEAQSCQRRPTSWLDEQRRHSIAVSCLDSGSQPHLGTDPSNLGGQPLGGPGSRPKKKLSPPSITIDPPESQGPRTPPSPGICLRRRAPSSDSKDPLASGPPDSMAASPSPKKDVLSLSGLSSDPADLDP
Assay: T-type calcium channel block, whole cell patch clamp in HEK cells (α1G)
Type: cell-based
Details: HEK cells, patch clamp, mainly non-inactivated protocol; values above 10 μM shown as 10 μM, below 0.30 μM shown as 0.30 μM; read-out: T-type Calcium Channel Block α1G IC50

Some compounds with known IC50 results, for comparison:
{"Substance smiles": "CS(=O)(=O)c1cc(C(=O)NCC2CCN(CCNC(=O)C3(C(F)(F)F)CCC3)CC2)cc(C(F)(F)F)c1", "Measured attribute": "IC50", "Recorded value": "> 10000 nM"}
{"Substance smiles": "O=C(NCC1CCN(CCNC(=O)C2CCCC2)CC1)c1cc(Cl)cc(Br)c1", "Measured attribute": "IC50", "Recorded value": "< 300 nM"}

Now for another entry.
Req: // returns reported IC50 for input `O=C(NCC1CCN(CC2(NS(=O)(=O)C3CC3)CCCC2)CC1)c1cc(C(F)(F)F)cc(C(F)(F)F)c1`
Resp: < 300 nM

Sourced from patent US8569344B2
